target: SpCas9 (Streptococcus pyogenes serotype M1, UniProt Q99ZW2); assay: eGFP-disruption assay in U2OS.eGFP.PEST cells; assay type: cell-based, S. pyogenes; parameters: host or cells: U2OS.eGFP.PEST; settings: screen of structural analogs of BRD7087; 15 μM compound, 24 h, U2OS.eGFP.PEST cells; read-out: Inhibition activity Rep 1
Sequence (Q99ZW2 whole entry): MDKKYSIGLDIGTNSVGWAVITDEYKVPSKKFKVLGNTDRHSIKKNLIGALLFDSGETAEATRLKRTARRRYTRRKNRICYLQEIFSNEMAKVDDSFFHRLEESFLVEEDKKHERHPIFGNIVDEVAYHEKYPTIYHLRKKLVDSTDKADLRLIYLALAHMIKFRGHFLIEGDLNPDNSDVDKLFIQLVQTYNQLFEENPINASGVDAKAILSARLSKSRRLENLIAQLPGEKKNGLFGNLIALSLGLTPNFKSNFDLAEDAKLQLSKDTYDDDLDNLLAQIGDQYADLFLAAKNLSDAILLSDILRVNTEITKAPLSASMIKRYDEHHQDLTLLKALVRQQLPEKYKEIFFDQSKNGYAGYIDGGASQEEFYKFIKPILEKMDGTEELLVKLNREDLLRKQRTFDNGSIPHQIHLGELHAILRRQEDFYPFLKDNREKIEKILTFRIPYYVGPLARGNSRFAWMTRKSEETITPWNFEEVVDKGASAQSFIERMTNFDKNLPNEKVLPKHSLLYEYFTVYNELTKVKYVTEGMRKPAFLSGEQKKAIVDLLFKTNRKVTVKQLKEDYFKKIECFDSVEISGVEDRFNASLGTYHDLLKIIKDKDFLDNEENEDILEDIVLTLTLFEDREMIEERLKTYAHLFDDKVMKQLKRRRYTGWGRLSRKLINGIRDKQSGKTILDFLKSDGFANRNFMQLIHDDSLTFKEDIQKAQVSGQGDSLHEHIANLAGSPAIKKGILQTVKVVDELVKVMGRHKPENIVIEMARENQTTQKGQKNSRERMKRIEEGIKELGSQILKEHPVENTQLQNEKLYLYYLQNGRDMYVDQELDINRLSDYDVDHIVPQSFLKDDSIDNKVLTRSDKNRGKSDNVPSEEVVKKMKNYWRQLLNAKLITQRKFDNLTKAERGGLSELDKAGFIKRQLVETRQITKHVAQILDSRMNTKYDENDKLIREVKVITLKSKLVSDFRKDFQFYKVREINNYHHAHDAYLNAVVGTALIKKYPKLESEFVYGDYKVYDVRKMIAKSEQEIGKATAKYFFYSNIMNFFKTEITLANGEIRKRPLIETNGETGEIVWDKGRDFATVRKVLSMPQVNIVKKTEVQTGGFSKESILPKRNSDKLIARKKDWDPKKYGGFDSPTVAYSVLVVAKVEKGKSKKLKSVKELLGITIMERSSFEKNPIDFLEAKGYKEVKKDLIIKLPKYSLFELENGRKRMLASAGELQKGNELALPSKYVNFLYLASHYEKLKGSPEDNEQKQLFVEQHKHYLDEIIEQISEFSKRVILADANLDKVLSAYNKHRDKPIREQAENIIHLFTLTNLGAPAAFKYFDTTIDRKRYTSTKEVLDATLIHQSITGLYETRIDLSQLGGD
As shown below, each of these compounds has a reported inhibition at 15 µM value.
OBSERVABLE: inhibition at 15 µM

1) COc1cccc(-c2ccc3c(c2)[C@H]2[C@H](CCN2C(=O)Cc2ccncc2)[C@H](CO)N3C)c1 :: 82.2%
2) CN1c2ccc(C#Cc3cccnc3)cc2[C@H]2[C@H](CCN2C(=O)Nc2cc(F)ccc2F)[C@@H]1CO :: 84.1%
3) CN1c2ccc(C#Cc3cccnc3)cc2[C@@H]2[C@@H](CCN2C(=O)C2CCCCC2)[C@H]1CO :: 47.6%
4) Cc1ccc(S(=O)(=O)N2CC[C@@H]3[C@H](CO)Nc4ccc(-c5ccccc5F)cc4[C@@H]32)cc1 :: 61%
